Measured inhibition, listed per entry.
- SYSTEM: Fibroblast growth factor receptor 2 (Homo sapiens) (UniProt P21802);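 also: reported figure is a mean percent inhibition of FGFR2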
- Sequence (P21802 22-821 limits assumed): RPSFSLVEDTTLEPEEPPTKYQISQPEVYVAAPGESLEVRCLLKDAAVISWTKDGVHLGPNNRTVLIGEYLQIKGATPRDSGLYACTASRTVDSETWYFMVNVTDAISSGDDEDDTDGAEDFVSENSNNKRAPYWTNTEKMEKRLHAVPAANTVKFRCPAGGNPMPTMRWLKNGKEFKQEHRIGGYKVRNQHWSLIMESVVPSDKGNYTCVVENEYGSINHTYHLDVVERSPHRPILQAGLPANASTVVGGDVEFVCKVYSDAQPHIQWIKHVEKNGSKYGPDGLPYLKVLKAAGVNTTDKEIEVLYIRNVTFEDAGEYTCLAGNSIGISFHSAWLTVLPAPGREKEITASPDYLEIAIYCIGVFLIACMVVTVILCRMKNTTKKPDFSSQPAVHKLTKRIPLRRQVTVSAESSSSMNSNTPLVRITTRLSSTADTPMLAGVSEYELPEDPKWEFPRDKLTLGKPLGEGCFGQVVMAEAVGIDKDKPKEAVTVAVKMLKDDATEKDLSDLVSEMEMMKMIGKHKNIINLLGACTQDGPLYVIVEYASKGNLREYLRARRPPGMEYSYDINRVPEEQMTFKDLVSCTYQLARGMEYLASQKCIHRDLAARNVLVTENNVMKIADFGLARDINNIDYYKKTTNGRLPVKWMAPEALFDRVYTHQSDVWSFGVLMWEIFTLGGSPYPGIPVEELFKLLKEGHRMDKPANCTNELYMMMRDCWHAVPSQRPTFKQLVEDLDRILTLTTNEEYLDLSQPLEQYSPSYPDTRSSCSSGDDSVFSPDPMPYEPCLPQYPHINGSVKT
- MEASUREMENT CONTEXT: at 1 µM
READOUT NAME: inhibition (%)

>  <RECORD SMILES>
O=C1Nc2ccccc2/C1=C1\CCc2cc(O)ccc21

>  <UNIT ANNOTATION>
%

>  <RECORDED MEASUREMENT>
31.3

$$$$
>  <RECORD SMILES>
O=C(Nc1n[nH]c2nnc(-c3cccnc3)cc12)C1CC1

>  <UNIT ANNOTATION>
%

>  <RECORDED MEASUREMENT>
-0.69

$$$$
>  <RECORD SMILES>
CS(=O)(=O)CCNCc1ccc(-c2ccc3ncnc(Nc4ccc(OCc5cccc(C(F)(F)F)c5)cc4)c3c2)o1

>  <UNIT ANNOTATION>
%

>  <RECORDED MEASUREMENT>
14.2

$$$$
>  <RECORD SMILES>
N#Cc1cccc(Nc2ncc(-c3ccccc3)o2)c1

>  <UNIT ANNOTATION>
%

>  <RECORDED MEASUREMENT>
7.1

$$$$
>  <RECORD SMILES>
N#Cc1ccc2c(-c3ccnc(NC4CC4)n3)c(-c3ccc(F)cc3)nn2c1

>  <UNIT ANNOTATION>
%

>  <RECORDED MEASUREMENT>
2.21

$$$$
>  <RECORD SMILES>
CN(c1ccc(NC(=O)NCCN2CCOCC2)cc1)c1ccnc(Nc2ccc(CS(C)(=O)=O)cc2)n1

>  <UNIT ANNOTATION>
%

>  <RECORDED MEASUREMENT>
14.8

$$$$
>  <RECORD SMILES>
CNC(=O)c1sc(-n2cnc3cc(OC)c(OC)cc32)cc1OCc1ccccc1C(F)(F)F

>  <UNIT ANNOTATION>
%

>  <RECORDED MEASUREMENT>
7.4

$$$$
>  <RECORD SMILES>
FC(F)(F)CNc1nccc(-c2cnn3ncccc23)n1

>  <UNIT ANNOTATION>
%

>  <RECORDED MEASUREMENT>
3.09

$$$$
>  <RECORD SMILES>
COc1cc(Nc2ncc(-c3ccccc3)o2)cc(OC)c1

>  <UNIT ANNOTATION>
%

>  <RECORDED MEASUREMENT>
11.7

$$$$
>  <RECORD SMILES>
COc1cc(N2CCN(C(C)C)CC2)ccc1Nc1nc(Nc2cccc3ncccc23)c2cc[nH]c2n1

>  <UNIT ANNOTATION>
%

>  <RECORDED MEASUREMENT>
1.97

$$$$

---

- SYSTEM: Ephrin type-A receptor 2 (Homo sapiens) (UniProt P29317);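 also: reported values are mean percent inhibition of EPHA2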
- Sequence (P29317 whole entry): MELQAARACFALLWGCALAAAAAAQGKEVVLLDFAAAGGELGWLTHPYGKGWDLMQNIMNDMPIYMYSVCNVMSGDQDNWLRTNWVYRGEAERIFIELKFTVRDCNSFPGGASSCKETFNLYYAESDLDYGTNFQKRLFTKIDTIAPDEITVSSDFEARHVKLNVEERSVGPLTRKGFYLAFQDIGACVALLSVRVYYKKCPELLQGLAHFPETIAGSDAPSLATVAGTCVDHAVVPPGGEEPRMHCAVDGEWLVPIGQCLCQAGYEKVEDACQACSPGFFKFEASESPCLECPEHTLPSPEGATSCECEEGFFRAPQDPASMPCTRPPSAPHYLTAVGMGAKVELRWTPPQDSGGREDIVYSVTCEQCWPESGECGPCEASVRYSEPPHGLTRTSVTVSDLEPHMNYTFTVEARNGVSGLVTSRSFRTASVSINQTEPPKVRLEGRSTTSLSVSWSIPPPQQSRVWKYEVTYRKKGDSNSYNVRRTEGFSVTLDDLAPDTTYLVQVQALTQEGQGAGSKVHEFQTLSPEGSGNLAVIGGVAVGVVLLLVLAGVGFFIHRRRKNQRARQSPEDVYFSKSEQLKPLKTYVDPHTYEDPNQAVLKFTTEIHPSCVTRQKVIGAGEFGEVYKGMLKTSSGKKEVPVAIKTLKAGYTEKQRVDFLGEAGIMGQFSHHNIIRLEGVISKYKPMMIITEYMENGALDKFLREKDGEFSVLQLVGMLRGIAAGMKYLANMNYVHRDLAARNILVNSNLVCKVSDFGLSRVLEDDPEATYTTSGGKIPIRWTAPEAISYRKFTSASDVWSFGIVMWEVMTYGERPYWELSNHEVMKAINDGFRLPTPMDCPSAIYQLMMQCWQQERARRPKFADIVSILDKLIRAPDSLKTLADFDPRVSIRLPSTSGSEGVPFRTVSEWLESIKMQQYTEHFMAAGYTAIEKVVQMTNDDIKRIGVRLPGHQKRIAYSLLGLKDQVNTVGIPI
- MEASUREMENT CONTEXT: at 0.1 µM
Reported inhibition values are given for each entry in this list.
READOUT NAME: inhibition (%)

>  <RECORD SMILES>
O=C(Nc1n[nH]c2nnc(-c3cccnc3)cc12)C1CC1

>  <READOUT NAME>
inhibition

>  <UNIT ANNOTATION>
%

>  <RECORDED MEASUREMENT>
-3.08

$$$$
>  <RECORD SMILES>
COC(=O)Nc1nc2cc(Oc3ccc(NC(=O)Nc4ccccc4)cc3)ccc2[nH]1

>  <READOUT NAME>
inhibition

>  <UNIT ANNOTATION>
%

>  <RECORDED MEASUREMENT>
2.42

$$$$
>  <RECORD SMILES>
COc1ccc(-c2nn3ncccc3c2-c2ccnc(Nc3ccc(F)c(F)c3)n2)cc1

>  <READOUT NAME>
inhibition

>  <UNIT ANNOTATION>
%

>  <RECORDED MEASUREMENT>
2.87

$$$$
>  <RECORD SMILES>
Cn1c(-c2nonc2N)nc2cnccc21

>  <READOUT NAME>
inhibition

>  <UNIT ANNOTATION>
%

>  <RECORDED MEASUREMENT>
1.97

$$$$
>  <RECORD SMILES>
c1ccc(-c2n[nH]cc2-c2ccnc(-c3ccc(OCCn4ccnc4)cc3)c2)nc1

>  <READOUT NAME>
inhibition

>  <UNIT ANNOTATION>
%

>  <RECORDED MEASUREMENT>
-2.85

$$$$
>  <RECORD SMILES>
CCn1c(-c2nonc2N)nc2cncc(C(=O)NCCNC)c21

>  <READOUT NAME>
inhibition

>  <UNIT ANNOTATION>
%

>  <RECORDED MEASUREMENT>
0.81

$$$$
>  <RECORD SMILES>
NS(=O)(=O)c1cccc(N/C=C2\C(=O)Nc3ccccc32)c1

>  <READOUT NAME>
inhibition

>  <UNIT ANNOTATION>
%

>  <RECORDED MEASUREMENT>
0.86

$$$$
>  <RECORD SMILES>
CN(C)CCNC(=O)Nc1ccc(N(C)c2ccnc(Nc3ccc(CS(C)(=O)=O)cc3)n2)cc1

>  <READOUT NAME>
inhibition

>  <UNIT ANNOTATION>
%

>  <RECORDED MEASUREMENT>
2.63

$$$$
>  <RECORD SMILES>
Fc1cccc(COc2ccc(Nc3ncncc3C#Cc3ccccc3)cc2Cl)c1

>  <READOUT NAME>
inhibition

>  <UNIT ANNOTATION>
%

>  <RECORDED MEASUREMENT>
4.2

$$$$
>  <RECORD SMILES>
COc1cc(Nc2ncc(-c3ccccc3)o2)cc(OC)c1

>  <READOUT NAME>
inhibition

>  <UNIT ANNOTATION>
%

>  <RECORDED MEASUREMENT>
2.21

$$$$

---

- SYSTEM: Tyrosine-protein kinase ABL1 (Homo sapiens) (UniProt P00519)
- Sequence (P00519 whole entry): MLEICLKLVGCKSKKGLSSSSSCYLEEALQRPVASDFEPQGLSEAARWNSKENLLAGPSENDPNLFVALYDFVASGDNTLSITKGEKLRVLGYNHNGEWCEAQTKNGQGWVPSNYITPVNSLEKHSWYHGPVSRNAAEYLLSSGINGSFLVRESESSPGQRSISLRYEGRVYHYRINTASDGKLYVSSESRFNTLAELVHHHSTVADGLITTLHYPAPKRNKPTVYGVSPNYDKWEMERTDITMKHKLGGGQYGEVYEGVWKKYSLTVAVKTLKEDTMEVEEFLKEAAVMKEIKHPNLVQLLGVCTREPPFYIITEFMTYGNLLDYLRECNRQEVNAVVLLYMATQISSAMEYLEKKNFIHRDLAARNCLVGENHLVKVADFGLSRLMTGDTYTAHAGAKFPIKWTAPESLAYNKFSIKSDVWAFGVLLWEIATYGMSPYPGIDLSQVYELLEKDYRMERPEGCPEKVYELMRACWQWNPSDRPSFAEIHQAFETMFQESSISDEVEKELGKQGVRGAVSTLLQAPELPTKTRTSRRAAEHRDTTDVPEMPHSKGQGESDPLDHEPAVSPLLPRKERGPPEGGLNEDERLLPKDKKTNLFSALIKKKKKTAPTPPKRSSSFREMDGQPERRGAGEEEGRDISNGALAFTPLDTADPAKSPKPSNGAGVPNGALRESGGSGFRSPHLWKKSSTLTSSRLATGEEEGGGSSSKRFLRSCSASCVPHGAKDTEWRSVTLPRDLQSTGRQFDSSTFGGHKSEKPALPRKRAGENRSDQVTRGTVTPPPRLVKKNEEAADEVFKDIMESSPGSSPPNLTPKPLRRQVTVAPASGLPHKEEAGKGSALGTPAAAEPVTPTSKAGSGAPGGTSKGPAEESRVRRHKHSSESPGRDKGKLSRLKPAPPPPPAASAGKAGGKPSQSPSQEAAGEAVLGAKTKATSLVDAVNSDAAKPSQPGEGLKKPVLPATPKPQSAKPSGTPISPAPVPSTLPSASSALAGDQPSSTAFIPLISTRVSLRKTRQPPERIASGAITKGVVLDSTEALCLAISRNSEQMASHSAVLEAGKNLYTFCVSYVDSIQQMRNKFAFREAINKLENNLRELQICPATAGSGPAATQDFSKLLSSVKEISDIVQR
- MEASUREMENT CONTEXT: at 0.1 µM
- Description: GSK_PKIS: ABL1 mean inhibition at 0.1 uM [Nanosyn]

>  <RECORD SMILES>
COc1cc(N2CCN(C(C)C)CC2)ccc1Nc1nc(Nc2cccc3ncccc23)c2cc[nH]c2n1

>  <inhibition, %>
1.91

$$$$
>  <RECORD SMILES>
O=C(O[C@H]1CN[C@H](C#Cc2cc3ncnc(Nc4ccc5c(cnn5Cc5ccccc5)c4)c3s2)C1)N1CCOCC1

>  <inhibition, %>
-0.22

$$$$
>  <RECORD SMILES>
CCOc1ccc2c(-c3ccnc(Nc4cc(OC)cc(C(F)(F)F)c4)n3)cnn2n1

>  <inhibition, %>
5.8

$$$$
>  <RECORD SMILES>
CCS(=O)(=O)c1ccc(OC)c(Nc2ncc(-c3cccc(F)c3)o2)c1

>  <inhibition, %>
39.8

$$$$
>  <RECORD SMILES>
CC(C)c1ccc(-c2cc(-c3c[nH]nc3-c3ccccn3)ccn2)cc1

>  <inhibition, %>
7.53

$$$$
>  <RECORD SMILES>
Cc1cc(O)cc(C)c1/C=C/c1cncc(C(=O)OC(C)(C)C)c1

>  <inhibition, %>
5.51

$$$$
>  <RECORD SMILES>
N#Cc1ccc2c(-c3ccnc(NC4CC4)n3)c(-c3ccc(F)cc3)nn2c1

>  <inhibition, %>
-0.74

$$$$
>  <RECORD SMILES>
Cc1ccc(-c2cc3c(NC(=O)C4CC4)ncnc3o2)cc1

>  <inhibition, %>
5.87

$$$$
>  <RECORD SMILES>
COc1cc(N2CCN(C(C)C)CC2)ccc1Nc1nc(Nc2cccc(F)c2C(=O)O)c2cc[nH]c2n1

>  <inhibition, %>
5.38

$$$$

---

Recorded measurements of inhibition, one per entry
- SYSTEM: Ephrin type-B receptor 2 (Homo sapiens) (UniProt P29323);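 also: reported as mean inhibition of EPHB2, from the GSK PKIS dataset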
- Sequence (P29323 whole entry): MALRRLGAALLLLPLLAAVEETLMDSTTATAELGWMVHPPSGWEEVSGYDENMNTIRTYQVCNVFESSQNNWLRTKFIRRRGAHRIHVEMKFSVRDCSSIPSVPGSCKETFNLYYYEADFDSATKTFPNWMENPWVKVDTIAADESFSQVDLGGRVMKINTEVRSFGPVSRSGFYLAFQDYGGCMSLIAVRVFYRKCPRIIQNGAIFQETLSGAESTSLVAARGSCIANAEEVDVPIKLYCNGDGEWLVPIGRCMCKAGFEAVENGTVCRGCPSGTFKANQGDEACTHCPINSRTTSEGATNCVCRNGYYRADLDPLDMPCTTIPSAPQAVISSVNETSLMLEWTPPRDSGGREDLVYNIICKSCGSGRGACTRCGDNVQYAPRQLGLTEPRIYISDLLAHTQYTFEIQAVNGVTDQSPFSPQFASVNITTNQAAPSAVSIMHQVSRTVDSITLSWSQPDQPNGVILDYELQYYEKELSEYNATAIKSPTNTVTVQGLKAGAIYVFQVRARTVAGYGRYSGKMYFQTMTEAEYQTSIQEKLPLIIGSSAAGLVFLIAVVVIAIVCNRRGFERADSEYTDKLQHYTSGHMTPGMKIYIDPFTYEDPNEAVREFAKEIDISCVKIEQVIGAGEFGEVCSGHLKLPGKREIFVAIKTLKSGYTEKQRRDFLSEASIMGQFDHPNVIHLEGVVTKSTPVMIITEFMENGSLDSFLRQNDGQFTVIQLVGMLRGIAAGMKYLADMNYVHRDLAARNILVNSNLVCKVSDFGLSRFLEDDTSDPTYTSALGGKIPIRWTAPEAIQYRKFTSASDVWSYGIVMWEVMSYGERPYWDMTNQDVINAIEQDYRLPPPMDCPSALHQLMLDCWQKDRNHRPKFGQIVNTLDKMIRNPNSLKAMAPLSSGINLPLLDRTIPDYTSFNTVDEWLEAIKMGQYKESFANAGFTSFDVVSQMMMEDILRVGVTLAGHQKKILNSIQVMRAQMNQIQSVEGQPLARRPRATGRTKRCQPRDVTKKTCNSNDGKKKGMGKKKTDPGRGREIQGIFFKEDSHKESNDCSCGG
- MEASUREMENT CONTEXT: at 0.1 µM
READOUT NAME: inhibition

>  <RECORD SMILES>
COc1cc(Nc2ncc(-c3ccccc3)o2)cc(OC)c1

>  <RECORDED MEASUREMENT>
8.98%

$$$$
>  <RECORD SMILES>
CCCNc1cccc(-n2ncc3c(N/N=C/c4ccncc4)ncnc32)c1

>  <RECORDED MEASUREMENT>
-1.54%

$$$$
>  <RECORD SMILES>
COc1cc(N2CCN(C(C)C)CC2)ccc1Nc1nc(Nc2cccc(F)c2C(=O)O)c2cc[nH]c2n1

>  <RECORDED MEASUREMENT>
9.96%

$$$$
>  <RECORD SMILES>
CS(=O)(=O)CCNCc1ccc(-c2ccc3ncnc(Nc4ccc(OCc5ccccc5)cc4)c3c2)o1

>  <RECORDED MEASUREMENT>
6.07%

$$$$
>  <RECORD SMILES>
c1ccc(-c2n[nH]cc2-c2ccnc(-c3ccc(OCCn4ccnc4)cc3)c2)nc1

>  <RECORDED MEASUREMENT>
-0.16%

$$$$
>  <RECORD SMILES>
CS(=O)(=O)CCNCc1ccc(-c2ccc3ncnc(Nc4ccc(OCc5cccc(C(F)(F)F)c5)cc4)c3c2)o1

>  <RECORDED MEASUREMENT>
7.05%

$$$$
>  <RECORD SMILES>
COC(=O)Nc1nc2ccc(Oc3ccc(NC(=O)Nc4cc(C(F)(F)F)ccc4F)cc3)cc2s1

>  <RECORDED MEASUREMENT>
74.1%

$$$$
>  <RECORD SMILES>
O=C(Nc1n[nH]c2nnc(-c3cccnc3)cc12)C1CC1

>  <RECORDED MEASUREMENT>
0.05%

$$$$
>  <RECORD SMILES>
CC1(C)CC(n2cnc(-c3ccc(F)cc3)c2-c2ccnc(N)n2)CC(C)(C)N1

>  <RECORDED MEASUREMENT>
0.78%

$$$$
>  <RECORD SMILES>
CN1CCC(n2cnc(-c3ccc(F)cc3)c2-c2ccnc(NCCO)n2)CC1

>  <RECORDED MEASUREMENT>
8.26%

$$$$
